Taken from patent US20250290915A1.

# Lookup of reported Drug response score, conc. 3 keyed by entry
# Test system: Circulating Tumour Cells (CTCs) from a patient with colon cancer (sigmoid colon cancer)
# Experimental Details: Drug response score assay on CTCs from blood, Example 8
# Type: cell-based, human
# Parameters: key: normalized drug response metric (Gupta et al. 2020)
# Condition Label: conc. 3 of each drug as in Table 24; CTCs; t96h
Lab note: record the figure alone, no unit after it.

input: Which Drug response score, conc. 3 is reported for this compound? "CCC1=C[C@@H]2CN(C1)Cc1c([nH]c3ccccc13)[C@@](C(=O)OC)(c1cc3c(cc1OC)N(C)[C@H]1[C@@](O)(C(=O)OC)[C@H](OC(C)=O)[C@]4(CC)C=CCN5CC[C@]31[C@@H]54)C2"
output: 0.2340

input: Endpoint output: Drug response score, conc. 3 of "CC(=O)O[C@H]1C(=O)[C@@]2(C)[C@H]([C@H](OC(=O)c3ccccc3)[C@]3(O)C[C@H](OC(=O)[C@H](O)[C@@H](NC(=O)c4ccccc4)c4ccccc4)C(C)=C1C3(C)C)[C@]1(OC(C)=O)CO[C@@H]1C[C@@H]2O" . Value?
output: −0.5818

input: Consider the compound "N.N.O=C([O-])C1(C(=O)[O-])CCC1.[Pt+2]" and give its measured Drug response score, conc. 3.
output: −0.8131

* * *

Listed here are compounds together with their documented Drug response score, conc. 3.
# Test system: Circulating Tumour Cells (CTCs) from a patient with head and neck cancer (squamous cell carcinoma)
# Experimental Details: Drug response score assay on CTCs from blood, Example 6
# Format: cell-based, human
# Condition Label: conc. 3: Ifos 5 μg/ml, Gemcit 20 μg/ml, Doxo 90 ng/ml, Etop 20 μg/ml, Metho 2 μg/ml, Capecit 400 μg/ml, Vinor 80 μg/ml; CTCs; t96h
// keep it numeric: no unit symbol after the value

input: # input compound: COc1cccc2c1C(=O)c1c(O)c3c(c(O)c1C2=O)C[C@@](O)(C(=O)CO)C[C@@H]3O[C@H]1C[C@H](N)[C@H](O)[C@H](C)O1 [Doxorubicin] ; wanted: its Drug response score, conc. 3
output: 0.6229

input: Drug response score, conc. 3 lookup needed for O=P1(NCCCl)OCCCN1CCCl (centres unmarked) [Ifosfamide] , thanks.
output: 0.9228

input: // Drug response score, conc. 3 lookup, key: Nc1ccn([C@@H]2O[C@H](CO)[C@@H](O)C2(F)F)c(=O)n1 [Gemcitabine]
output: 0.6925

input: // lookup Drug response score, conc. 3 for COc1cc([C@@H]2c3cc4c(cc3[C@@H](O[C@@H]3O[C@@H]5CO[C@@H](C)O[C@H]5[C@H](O)[C@H]3O)[C@H]3COC(=O)[C@H]23)OCO4)cc(OC)c1O [Etoposide]
output: 0.9862

input: Tell me the measured Drug response score, conc. 3 of CN(Cc1cnc2nc(N)nc(N)c2n1)c1ccc(C(=O)N[C@@H](CCC(=O)O)C(=O)O)cc1 [Methotrexate] , please.
output: 1.0559
